experiment: S16 Schwann cell PMP22 intronic element firefly luciferase assay (AID 624032); details: S16 rat Schwann cells, PMP22 element FLuc, 24 h; series mostly up to 57.5 µM; also: nearly all actives have a fitted effect of over 30% in size
Inconclusive results are not listed. Active and inactive are the calls of the source. Calls follow the shape of the dose curve; as a rule, active = well fitted inhibition curve with a large enough effect; inconclusive = small, poorly fitted or top-dose-only effect; inactive = no such curve, though single readings can be large or run the other way.
Outcomes you can answer with include only these: true (1) (active), false (0) (inactive)

Fill in: this test's call for `Nc1ccc(S(=O)(=O)Nc2ccccn2)cc1` is ___
false (0)

What classification did `COc1ccc(C(=O)CC(=O)c2ccc(C(C)(C)C)cc2)cc1` end up with in this test?
false (0)

Write down the call the test reported for this compound. Item: `Oc1c(Cl)cc(Cl)c2cccnc12`
true (1)

Tell me the recorded outcome of this test for `O=S(=O)(c1cccc2cnccc12)N1CCCNCC1` .
false (0)

How was `CC[C@H](NC(C)C)[C@H](O)c1ccc(O)c2[nH]c(=O)ccc12` classified in this test?
false (0)

Which outcome was assigned to `Cc1cccc(Nc2ccncc2S(=O)(=O)NC(=O)NC(C)C)c1` in this test?
false (0)

Test call, this compound: `O=C(O)CCn1c2c(c3ccccc31)C[C@H](NS(=O)(=O)c1ccc(F)cc1)CC2`
false (0)
